# Tested on: TF1 cells
# experiment: Cytotoxicity, PrestoBlue assay, TF1 cells
# Assay type: cell-based
# assay_conditions: Homo sapiens, TF-1, 72 h, read-out: IC50 toward TF1 cells
assay_metric: pIC50
In simple prose, pIC50 is minus the logarithm base ten of a concentration in moles per litre.

Summary: N#CC[C@H](C1CCCC1)n1cc(-c2ncnc3[nH]ccc23)cn1 , TF1 cells, pIC50 = 4.97
